Every entry's value here was drawn from patent US11512079B2.

# Test system: Rhizomucor pusillus 46342
# test: In vitro antifungal assay (Example IX), microdilution broth, MEC
# Format: cell-based
# recorded conditions: minimum effective concentration (shortening of hyphae), 35° C., 40-48 h, RPMI1640
Give minimal effective concentration for every item shown.

For the molecule `Nc1ncccc1-c1cc(Cc2ccc(OCc3ccnc(F)c3)nc2)no1` , what minimal effective concentration is on record? 0.1 to 1 µg/mL

Proceed to `Nc1ncccc1-c1cc(Cc2ccc(OCc3ccccn3)nc2)no1` > 1 µg/mL

Param item: `Nc1ncccc1-c1cc(Cc2ccc(Oc3cc(F)cc(F)n3)cc2)no1` 0.1 to 1 µg/mL

How about this molecule: `Nc1ncccc1-c1cc(Cc2ccc(Cn3cc(F)cn3)cc2)no1` 0.1 to 1 µg/mL

Further, for `Nc1ncccc1-c1cc(Cc2ccc(Oc3ccccc3)nc2)no1` ? 0.1 to 1 µg/mL

Same question for `Nc1ncccc1-c1cc(Cc2ccc(OCc3ccn4ccnc4c3)nc2)no1` please. > 1 µg/mL

Here is the next molecule: `Cc1cc(COc2ccc(Cc3cc(-c4cccnc4N)on3)cn2)no1` 0.1 to 1 µg/mL

Try this molecule too: `Nc1ncccc1-c1cc(Cc2ccc(OCc3ccccc3)cc2)no1` 0.1 to 1 µg/mL

Now consider `Nc1ccc(-c2cc(Cc3ccc(CNc4ccccc4)cc3)no2)c(N)n1` . 0.01 to 0.1 µg/mL

Same again, this time with `Nc1ncccc1-c1cc(Cc2ccc(Cn3ncc4ccccc43)cc2)no1` 0.1 to 1 µg/mL

Entry `Nc1ncccc1-c1cc(Cc2ccc(Oc3ccc(F)cc3F)nc2)no1` please 0.1 to 1 µg/mL

Next molecule up: `Nc1ncccc1-c1cc(Cc2ccc(COc3cccc(F)n3)cc2)no1` > 1 µg/mL

Okay, and `Nc1ncccc1-c1cc(Cc2ccc(Oc3ccc(F)cc3)nc2)no1` ? 0.1 to 1 µg/mL

Also check `Nc1ncccc1-c1cc(Cc2ccc(Nc3ccccc3)cc2)no1` 0.1 to 1 µg/mL

And for `Nc1ncccc1-c1cc(Cc2ccc(Nc3cc(F)ccc3F)nc2)no1` ? > 1 µg/mL

Also check `Nc1ncccc1-c1cc(Cc2ccc(CCC3CCCCC3)cc2)no1` > 1 µg/mL

Also need `Nc1ncccc1-c1cc(Cc2ccc(/C=C/Cc3ccccc3)cc2)no1` , thanks. > 1 µg/mL

Can you handle `Nc1ncccc1-c1cc(Cc2ccc(CNc3cc(F)cc(F)c3)cc2)no1` next? 0.1 to 1 µg/mL

Now the same for `Nc1ncccc1-c1cc(Cc2ccc(OCc3ccncc3Cl)nc2)no1` > 1 µg/mL

Same question for CC(Oc1ccc(Cc2cc(-c3cccnc3N)on2)cn1)c1ccccc1F (stereo not shown) please. > 1 µg/mL

# repeat for `COc1cc(F)cc(NCc2ccc(Cc3cc(-c4cccnc4N)on3)cc2)c1` > 1 µg/mL

Query `Nc1ncccc1-c1cc(Cc2ccc(Cn3cncn3)cc2)no1` next > 1 µg/mL

Param item: `Nc1ncccc1-c1cc(Cc2ccc(CNc3ccccc3F)cc2)no1` 0.1 to 1 µg/mL

Next entry: `Nc1ncccc1-c1cc(Cc2ccc(Cn3ccccc3=O)cc2)no1` > 1 µg/mL

Also check `Nc1ncccc1-c1cc(Cc2ccc(COc3cccnc3)cc2)no1` > 1 µg/mL

Could you do the same for `Cc1cncc(COc2ccc(Cc3cc(-c4cccnc4N)on3)cc2)c1` , please? > 1 µg/mL

Repeat with `Nc1ncccc1-c1cnn(Cc2ccc(Oc3ccccc3)nc2)c1` > 1 µg/mL

Note, next up: `Nc1ncccc1-c1cc(Cc2ccc(OCc3cc(F)cc(F)c3)nc2)no1` 0.1 to 1 µg/mL

Try this molecule next: `CC(C)(COc1ccc(Cc2cc(-c3cccnc3N)on2)cn1)c1ccccc1` 0.1 to 1 µg/mL

Let us now turn to `Nc1ncccc1-c1cc(Cc2ccc(OCC3CC3)nc2)no1` 0.1 to 1 µg/mL

Item: `Nc1ncccc1-c1cc(Cc2ccnc(OCCc3cccc(F)c3)c2)no1` > 1 µg/mL

Input `Nc1ncccc1-c1cc(Cc2ccc(Cc3cn[nH]c3)cc2)no1` > 1 µg/mL

Similarly, `Nc1ncccc1-c1cc(Cc2ccc(Cc3cccc(F)n3)cc2)no1` ? 0.1 to 1 µg/mL

What do we get for `Nc1ncccc1-c1cnn(Cc2ccc(Sc3ccccc3)nc2)c1` ? > 1 µg/mL

Subsequent entry: `Nc1ncccc1-c1cc(Cc2ccc(CNc3nc(Cl)cs3)cc2)no1` 0.1 to 1 µg/mL

Lookup `CC(C)=CCOc1ccc(Cc2cc(-c3ccc(N)nc3N)on2)cc1` 0.1 to 1 µg/mL

And what about the molecule `Nc1ncccc1-c1cc(Cc2cnc(Nc3ccccc3F)c(F)c2)no1` ? 0.1 to 1 µg/mL
